test-summary: self-splicing fitness, log relative to wild type (ln ratio); higher = more splicing; Tetrahymena group I intron in knt gene, E. coli kanamycin selection, DiMSum; sequences stand for … in CUCUCU…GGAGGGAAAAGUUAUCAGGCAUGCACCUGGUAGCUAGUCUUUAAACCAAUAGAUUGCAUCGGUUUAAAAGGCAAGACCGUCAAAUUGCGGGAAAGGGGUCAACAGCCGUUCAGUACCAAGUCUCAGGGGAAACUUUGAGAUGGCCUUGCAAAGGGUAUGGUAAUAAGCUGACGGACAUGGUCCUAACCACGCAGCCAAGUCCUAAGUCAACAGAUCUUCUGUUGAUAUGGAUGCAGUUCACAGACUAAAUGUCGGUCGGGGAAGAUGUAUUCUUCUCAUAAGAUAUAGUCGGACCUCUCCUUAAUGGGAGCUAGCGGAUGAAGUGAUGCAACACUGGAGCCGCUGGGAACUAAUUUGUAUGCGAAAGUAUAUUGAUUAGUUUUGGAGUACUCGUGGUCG;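 also: selection with 25 µg/mL kanamycin versus none on LB agar overnight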
run-conditions: 37 °C
Parameter threshold = -1. Response is satisfied when self-splicing fitness (ln) meets or exceeds it, else not satisfied.

[
  {
    "sequence-text": "GCACAGCAAUAUUACGAUCG",
    "assigned-category": "satisfied"
  },
  {
    "sequence-text": "CGAUAGCAAUAUUACGGAAU",
    "assigned-category": "not satisfied"
  },
  {
    "sequence-text": "CUUCAGCAAUAUUACGGCCG",
    "assigned-category": "satisfied"
  },
  {
    "sequence-text": "AAGCAGCAAUAUUACGGGUU",
    "assigned-category": "not satisfied"
  },
  {
    "sequence-text": "CCGCAGCAAUAUUACGUCCG",
    "assigned-category": "satisfied"
  },
  {
    "sequence-text": "CUUGAGCAAUAUUACGCGAC",
    "assigned-category": "satisfied"
  },
  {
    "sequence-text": "UUUAAGCAAUAUUACGAGUA",
    "assigned-category": "not satisfied"
  },
  {
    "sequence-text": "UUAUAGCAAUAUUACGAUGA",
    "assigned-category": "satisfied"
  },
  {
    "sequence-text": "GAAGAGCAAUAUUACGACCA",
    "assigned-category": "not satisfied"
  },
  {
    "sequence-text": "CUUUAGCAAUAUUACGUAAA",
    "assigned-category": "not satisfied"
  },
  {
    "sequence-text": "ACUAAGCAAUAUUACGGCUU",
    "assigned-category": "not satisfied"
  },
  {
    "sequence-text": "UCGUAGCAAUAUUACGGCCA",
    "assigned-category": "satisfied"
  },
  {
    "sequence-text": "UCGCAGCAAUAUUACGGAUA",
    "assigned-category": "not satisfied"
  },
  {
    "sequence-text": "CUGUAGCAAUAUUACGCAAG",
    "assigned-category": "not satisfied"
  },
  {
    "sequence-text": "UUCGAGCAAUAUUACGGGGC",
    "assigned-category": "not satisfied"
  },
  {
    "sequence-text": "CCGGAGCAAUAUUACGCGGG",
    "assigned-category": "not satisfied"
  },
  {
    "sequence-text": "AGCCAGCAAUAUUACGAUCG",
    "assigned-category": "not satisfied"
  },
  {
    "sequence-text": "GGCAAGCAAUAUUACGACUU",
    "assigned-category": "satisfied"
  },
  {
    "sequence-text": "ACCUAGCAAUAUUACGCUAC",
    "assigned-category": "not satisfied"
  },
  {
    "sequence-text": "GCCCAGCAAUAUUACGUUUA",
    "assigned-category": "satisfied"
  },
  {
    "sequence-text": "GUUUAGCAAUAUUACGUCUC",
    "assigned-category": "satisfied"
  },
  {
    "sequence-text": "UAAUAGCAAUAUUACGGGUG",
    "assigned-category": "satisfied"
  },
  {
    "sequence-text": "UUAUAGCAAUAUUACGGGGU",
    "assigned-category": "not satisfied"
  },
  {
    "sequence-text": "CGGGAGCAAUAUUACGGAUU",
    "assigned-category": "not satisfied"
  },
  {
    "sequence-text": "AUUCAGCAAUAUUACGCAUC",
    "assigned-category": "satisfied"
  },
  {
    "sequence-text": "CAGUAGCAAUAUUACGGAGU",
    "assigned-category": "not satisfied"
  },
  {
    "sequence-text": "GUGAAGCAAUAUUACGGUCC",
    "assigned-category": "satisfied"
  },
  {
    "sequence-text": "UAUGAGCAAUAUUACGUGGG",
    "assigned-category": "not satisfied"
  },
  {
    "sequence-text": "AGGGAGCAAUAUUACGUAGU",
    "assigned-category": "not satisfied"
  },
  {
    "sequence-text": "GAUAAGCAAUAUUACGGUAG",
    "assigned-category": "not satisfied"
  },
  {
    "sequence-text": "GGGGAGCAAUAUUACGCGGC",
    "assigned-category": "not satisfied"
  },
  {
    "sequence-text": "AGCCAGCAAUAUUACGAUUA",
    "assigned-category": "not satisfied"
  },
  {
    "sequence-text": "CUGAAGCAAUAUUACGGAGG",
    "assigned-category": "not satisfied"
  },
  {
    "sequence-text": "CAGAAGCAAUAUUACGGUGG",
    "assigned-category": "not satisfied"
  },
  {
    "sequence-text": "CCUUAGCAAUAUUACGAUCG",
    "assigned-category": "satisfied"
  },
  {
    "sequence-text": "CUGAAGCAAUAUUACGGGAG",
    "assigned-category": "satisfied"
  },
  {
    "sequence-text": "UAUGAGCAAUAUUACGGACG",
    "assigned-category": "not satisfied"
  },
  {
    "sequence-text": "GAACAGCAAUAUUACGGCCU",
    "assigned-category": "satisfied"
  },
  {
    "sequence-text": "GUUCAGCAAUAUUACGGUCU",
    "assigned-category": "satisfied"
  },
  {
    "sequence-text": "UCUGAGCAAUAUUACGUGCA",
    "assigned-category": "not satisfied"
  },
  {
    "sequence-text": "CCAUAGCAAUAUUACGGUGC",
    "assigned-category": "not satisfied"
  },
  {
    "sequence-text": "UGGCAGCAAUAUUACGAUAU",
    "assigned-category": "not satisfied"
  },
  {
    "sequence-text": "UGGAAGCAAUAUUACGUCUG",
    "assigned-category": "not satisfied"
  },
  {
    "sequence-text": "CGGAAGCAAUAUUACGCUUG",
    "assigned-category": "not satisfied"
  },
  {
    "sequence-text": "UUGAAGCAAUAUUACGUGCA",
    "assigned-category": "satisfied"
  },
  {
    "sequence-text": "AUCGAGCAAUAUUACGUACC",
    "assigned-category": "not satisfied"
  },
  {
    "sequence-text": "AGCUAGCAAUAUUACGUUCU",
    "assigned-category": "satisfied"
  },
  {
    "sequence-text": "GUAGAGCAAUAUUACGCUUC",
    "assigned-category": "not satisfied"
  },
  {
    "sequence-text": "CCUCAGCAAUAUUACGCGAA",
    "assigned-category": "not satisfied"
  },
  {
    "sequence-text": "GGCGAGCAAUAUUACGUGCG",
    "assigned-category": "satisfied"
  },
  {
    "sequence-text": "GCUGAGCAAUAUUACGCGGC",
    "assigned-category": "not satisfied"
  },
  {
    "sequence-text": "UAUCAGCAAUAUUACGUACU",
    "assigned-category": "satisfied"
  },
  {
    "sequence-text": "CUUUAGCAAUAUUACGUGAG",
    "assigned-category": "satisfied"
  },
  {
    "sequence-text": "GAUUAGCAAUAUUACGGCGA",
    "assigned-category": "satisfied"
  },
  {
    "sequence-text": "UGAGAGCAAUAUUACGCUUG",
    "assigned-category": "not satisfied"
  },
  {
    "sequence-text": "UGGAAGCAAUAUUACGGGAU",
    "assigned-category": "not satisfied"
  },
  {
    "sequence-text": "UUCGAGCAAUAUUACGAGCG",
    "assigned-category": "not satisfied"
  },
  {
    "sequence-text": "GGUAAGCAAUAUUACGCAUG",
    "assigned-category": "not satisfied"
  },
  {
    "sequence-text": "AGUUAGCAAUAUUACGUUGC",
    "assigned-category": "not satisfied"
  },
  {
    "sequence-text": "CGCCAGCAAUAUUACGAAGU",
    "assigned-category": "not satisfied"
  },
  {
    "sequence-text": "GACAAGCAAUAUUACGUUAA",
    "assigned-category": "not satisfied"
  },
  {
    "sequence-text": "CACGAGCAAUAUUACGGUAU",
    "assigned-category": "not satisfied"
  },
  {
    "sequence-text": "CCAUAGCAAUAUUACGGAUC",
    "assigned-category": "not satisfied"
  },
  {
    "sequence-text": "UGAAAGCAAUAUUACGGUAG",
    "assigned-category": "satisfied"
  },
  {
    "sequence-text": "UACUAGCAAUAUUACGCAUC",
    "assigned-category": "not satisfied"
  },
  {
    "sequence-text": "UCCUAGCAAUAUUACGAACA",
    "assigned-category": "not satisfied"
  }
]
